Where these numbers come from: PubChem BioAssay

# Experiment Summary: RPL19A-GFP modulators, yeast TOR pathway, confirmation, cell-based, S. cerevisiae, flow cytometry, cherry picks, mother/daughter gates (AID 2270)
# Condition Label: S. cerevisiae RPL19A-GFP strain, 3 h, measured here: daughter cell gate, at 10 µM, stronger effect = lower value, 100 = same GFP as DMSO wells
Here the recorded GFP response vs DMSO is given for each entry.
Number in %, nothing else.

Recorded results for 5 molecules are shown here.
Cc1ccc(/C=C/C(=O)c2ccc([N+](=O)[O-])o2)cc1	107
COc1ccc(-c2cc3cc(C(=O)O)ccn3c2C(=O)c2ccccc2)cc1	95.6
CCCc1[nH]nc2c1C(c1ccccc1OC)C(C#N)=C(N)O2 (stereo not given)	94.4
Cc1cccc2c1NC(=O)/C2=C\C(=O)c1cccs1	91.1
Cc1cc(N2CCCCC2)n2nc(C)c(-c3ccccc3)c2n1	97.3

Please give the measured GFP response vs DMSO for this molecule: Cc1cc(C)n(C(=O)/C(C#N)=N\Nc2ccccc2[N+](=O)[O-])n1 71.4

Likewise for CC1CCCCN1S(=O)(=O)c1ccc(C(=O)Nc2nnc(-c3ccccc3Cl)o2)cc1 (stereo not given) ? 97.9

Likewise for O=C(OC(c1ccc(NS(=O)(=O)c2ccccc2)cc1)(C(F)(F)F)C(F)(F)F)c1ccccc1 ? 101

Likewise for COc1ccccc1CN1C(=O)c2cccc3cccc(c23)C1=O ? 100

Likewise for O=C1C(=O)N(Cc2ccccc2)C(c2cccc(O)c2)/C1=C(\O)c1ccc2c(c1)OCCO2 (stereo not given) ? 100
